Target: mouse NAT8L (Mus musculus, UniProt Q3UGX3)
Construct: expressed in transfected cells; host or cells: HEK 293T cells (pCMV5 vector); washed 16 000 x g membrane pellets of frozen-thawed extracts
Sequence (Q3UGX3 whole entry): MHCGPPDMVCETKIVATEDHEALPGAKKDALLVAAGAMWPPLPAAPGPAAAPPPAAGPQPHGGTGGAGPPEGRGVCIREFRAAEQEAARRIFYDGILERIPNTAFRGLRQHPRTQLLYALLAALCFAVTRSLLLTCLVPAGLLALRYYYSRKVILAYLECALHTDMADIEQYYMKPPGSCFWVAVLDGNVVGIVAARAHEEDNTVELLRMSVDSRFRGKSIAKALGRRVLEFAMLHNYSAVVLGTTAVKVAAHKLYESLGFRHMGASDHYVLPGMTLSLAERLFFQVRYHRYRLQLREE
Experiment: Radiochemical Asp-NAT activity assay on washed membrane pellets of HEK cells transfected with untagged mouse NAT8L
Format: biochemical
Conditions: inhibition of incorporation of [^14C]-aspartate into NAA, competitive with respect to aspartate; 200 µM acetyl-CoA, 0.5 mM CHAPS, variable aspartate
Procedure: After 20-40 min at 30°C, the reaction was arrested by a 5-min incubation at 80°C and 1 ml of 5 mM Hepes, pH 7.1 was added. The sample was centrifuged and the supernatant was applied on a 1-ml Dowex AG1X8 column (Cl^- form, 100-200 mesh, from Acros Organics) prepared in a Pasteur capillary pipette. […] Radioactivity was counted in the presence of Ultima Gold™ (Perkin Elmer) in a liquid scintillation counter. […]
assay-endpoint: Ki (µM)
The response must be a number in µM with no trailing unit.

**Q:** For CC(=O)N[C@@H](CC(=O)O)C(=O)O [NAA, N-acetylaspartate] , what is its reported Ki?
**A:** 560
